In this section, each of the substances is paired with its reported pIC50.
Target: CaMKII-KD (Rattus norvegicus, UniProt P11275)
Construct: made in house; host or cells: Sf21 insect cells, baculovirus (pBacPAK8)
Sequence (P11275 13-271 limits assumed): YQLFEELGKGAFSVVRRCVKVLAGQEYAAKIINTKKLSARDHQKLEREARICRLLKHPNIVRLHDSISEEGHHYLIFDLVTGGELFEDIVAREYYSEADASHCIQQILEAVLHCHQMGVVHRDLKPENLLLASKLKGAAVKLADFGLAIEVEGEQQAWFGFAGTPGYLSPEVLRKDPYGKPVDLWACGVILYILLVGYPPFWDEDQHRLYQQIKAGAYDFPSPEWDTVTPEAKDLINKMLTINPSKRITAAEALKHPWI
Assay: Kinase assay: phosphorylation of autocamtide-2 by CaMKII-KD
Format: biochemical
pIC50: −log10 of the molar value. Bridges are numbered along the chain shown (N, C = ends). Roman numbers before positions name the chains, in order. Where no end group is shown, it is not given here. [ ]: non-standard residue; d: D form. Ahx = NCCCCCC(=O)O
Reported endpoint: pIC50

• I: MARRILLLLLALLHAKKK[Ahx]KK-NH2 / II: MARRILLLLLALLHAKKK[Ahx]K / III: MARRILLLLLALLHAKKK[Ahx] / IV: MARRILLLLLALLHAKKK[Ahx] (amide I:20-IV:C, I:21-II:C, II:20-III:C) [T6] = 4.49
• I: MARRILLLLLARLHAKKK[Ahx]KK-NH2 / II: MARRILLLLLARLHAKKK[Ahx]K / III: MARRILLLLLARLHAKKK[Ahx] / IV: MARRILLLLLARLHAKKK[Ahx] (amide I:20-IV:C, I:21-II:C, II:20-III:C) [T3] = 5.07
• I: MARRRLLLLLARHHAKKK[Ahx]KK-NH2 / II: MARRRLLLLLARHHAKKK[Ahx]K / III: MARRRLLLLLARHHAKKK[Ahx] / IV: MARRRLLLLLARHHAKKK[Ahx] (amide I:20-IV:C, I:21-II:C, II:20-III:C) [T1] = 5.62
• I: MARRILLLLLARHHAKKK[Ahx]KK-NH2 / II: MARRILLLLLARHHAKKK[Ahx]K / III: MARRILLLLLARHHAKKK[Ahx] / IV: MARRILLLLLARHHAKKK[Ahx] (amide I:20-IV:C, I:21-II:C, II:20-III:C) [T2] = 4.85

Data origin: paper PMC11708044
